- experimentalTarget: recombinant human DPPIV (rhDPPIV) (Homo sapiens, UniProt P27487)
- Sequence (P27487 whole entry): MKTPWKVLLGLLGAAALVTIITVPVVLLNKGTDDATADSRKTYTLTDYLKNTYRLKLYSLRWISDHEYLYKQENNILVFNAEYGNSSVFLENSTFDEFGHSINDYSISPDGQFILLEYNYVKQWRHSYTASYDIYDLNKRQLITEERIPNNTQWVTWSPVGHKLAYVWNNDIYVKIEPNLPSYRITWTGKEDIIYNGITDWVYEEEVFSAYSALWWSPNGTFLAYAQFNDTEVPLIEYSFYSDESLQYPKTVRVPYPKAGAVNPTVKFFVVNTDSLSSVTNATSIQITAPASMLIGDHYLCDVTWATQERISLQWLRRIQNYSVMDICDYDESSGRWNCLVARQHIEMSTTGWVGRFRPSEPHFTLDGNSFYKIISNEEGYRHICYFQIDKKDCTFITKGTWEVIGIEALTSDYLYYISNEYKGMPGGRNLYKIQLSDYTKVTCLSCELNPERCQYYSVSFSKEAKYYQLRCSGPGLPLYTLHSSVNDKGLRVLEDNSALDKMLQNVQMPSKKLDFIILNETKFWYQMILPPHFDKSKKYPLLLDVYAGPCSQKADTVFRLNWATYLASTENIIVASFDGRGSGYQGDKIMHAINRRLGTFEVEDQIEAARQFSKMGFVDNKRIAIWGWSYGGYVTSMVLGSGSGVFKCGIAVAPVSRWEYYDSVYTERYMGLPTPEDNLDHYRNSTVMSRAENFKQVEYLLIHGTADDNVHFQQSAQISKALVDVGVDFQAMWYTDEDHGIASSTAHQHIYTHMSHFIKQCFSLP
- assayInfo: DPPIV enzymatic activity assay
- testSettings: H-Gly-Pro-pNA substrate
pIC50: −log10 of the molar value.
Overview of reported pIC50 across a group of compounds:

Illustrative cases are given below, each with its answer.
| smilesEntry | assayResult |
| --- | --- |
| N#C[C@@H]1CC(F)(F)CN1C(=O)CNC(=O)c1ccncc1Nc1ccccc1 | < 5.00 |
| N#C[C@@H]1CC(F)(F)CN1C(=O)CNC(=O)c1ccncc1N1CCOCC1 | 5.00 to 6.00 |
| N#C[C@@H]1CC(F)(F)CN1C(=O)CNC(=O)c1ccncc1-c1cc(Cl)ccc1F | < 5.00 |
| N#C[C@@H]1CC(F)(F)CN1C(=O)CNC(=O)c1ccc(=O)[nH]c1 | < 5.00 |

Here's the next entry for you.
# input Suppose we examine the compound N#C[C@@H]1CC(F)(F)CN1C(=O)CNC(=O)c1ccncc1-c1ccnc2ccccc12 ; what pIC50 value has been reported?
# output 5.00 to 6.00
